The measured values listed here are drawn from paper PMC10030565.

# system_tested: DmpX (SBP encoded by SPO2441) (Ruegeria pomeroyi, UniProt Q5LQP7)
# Sequence (Q5LQP7 entry or part of it): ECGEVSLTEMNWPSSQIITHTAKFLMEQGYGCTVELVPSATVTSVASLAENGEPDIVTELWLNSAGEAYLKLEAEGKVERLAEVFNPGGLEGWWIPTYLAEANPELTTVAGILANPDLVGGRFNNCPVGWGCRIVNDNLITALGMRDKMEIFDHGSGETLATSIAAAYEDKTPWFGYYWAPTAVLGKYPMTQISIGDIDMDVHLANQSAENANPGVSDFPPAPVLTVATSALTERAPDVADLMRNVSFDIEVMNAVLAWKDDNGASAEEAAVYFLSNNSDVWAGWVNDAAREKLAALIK
observed_property: Kd
Form entry: enter the amount, then its unit.

Prompt: Report Kd for C[S+](C)CCC(=O)[O-] [DMSP, Dimethylsulfoniopropionate] tested on DmpX (SBP encoded by SPO2441) (Ruegeria pomeroyi, UniProt Q5LQP7).
Completion: 1100 nM

---

# system_tested: UniProt:A3SME7
# Sequence (A3SME7 entry or part of it): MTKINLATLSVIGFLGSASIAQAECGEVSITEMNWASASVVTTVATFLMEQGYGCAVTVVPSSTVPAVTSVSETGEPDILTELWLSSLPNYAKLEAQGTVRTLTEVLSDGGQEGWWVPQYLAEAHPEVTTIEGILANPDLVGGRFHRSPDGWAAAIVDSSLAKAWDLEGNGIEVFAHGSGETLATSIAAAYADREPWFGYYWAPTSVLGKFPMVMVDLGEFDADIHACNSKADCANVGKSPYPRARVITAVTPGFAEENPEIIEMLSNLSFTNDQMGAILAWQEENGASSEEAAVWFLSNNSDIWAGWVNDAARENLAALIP
# protocol: ITC titration of DMSP into recombinant RnDmpX
observed_property: Kd (nM)
Give your result in nM as a bare value.

Prompt: Looking for the measured Kd of C[S+](C)CCC(=O)[O-] [DMSP, Dimethylsulfoniopropionate] , can you help?
Completion: 474
